Test system: Huh7.5 cells
assay.details: in vitro

# molecule, assay.target, CC50
rows = [
    ("C=Cc1cccc2c1N(C)Cc1cc(OC(=O)c3ccc(Br)cc3)c(OC(=O)c3ccc(Br)cc3)cc1-2 [Compound 11n]", "Huh7.5 cells", "82.6 µM"),
    ("C=Cc1cccc2c1N(C)Cc1cc(OCc3ccc(C#N)cc3)c(OCc3ccc(C#N)cc3)cc1-2 [Compound 11g]", "Huh7.5 cells", "25.9 µM"),
    ("CCc1cccc2c1N(C)Cc1cc(OC(=O)c3ccc(Br)cc3)c(OC(=O)c3ccc(Br)cc3)cc1-2 [Compound 10p]", "Huh7.5 cells", "> 100 µM"),
    ("CCOc1cc2c(cc1OCC)-c1cccc(CC)c1N(C)C2 [Compound 10b]", "Huh7.5 cells", "> 100 µM"),
    ("CCCCC(=O)Oc1cc2c(cc1OC(=O)CCCC)-c1cccc(CC)c1N(C)C2 [Compound 10m]", "Huh7.5 cells", "> 100 µM"),
    ("C=Cc1cccc2c1N(C)Cc1cc(OC(=O)CCCC)c(OC(=O)CCCC)cc1-2 [Compound 11k]", "Huh7.5 cells", "> 100 µM"),
    ("C=Cc1cccc2c1N(C)Cc1cc(OCc3cccc(OC)c3OC)c(OCc3cccc(OC)c3OC)cc1-2 [Compound 11f]", "Huh7.5 cells", "32.9 µM"),
    ("CCc1cccc2c1N(C)Cc1cc(OCc3cccc(OC)c3OC)c(OCc3cccc(OC)c3OC)cc1-2 [Compound 10h]", "Huh7.5 cells", "> 100 µM"),
]

----------
assay.details: in vitro
test.settings: human
Protocol: (1) Toxicity Experiment of the Compound on Huh7.5: 100 μL of Huh7.5 cells (1×10^5/ml) was inoculated in 96-wells plates and incubated in an incubator at 37° C. under 5% of CO2 and saturated humidity for 24 hrs. […] After the cells were lysed with DMSO, OD570-630 […] was determined on ELIASA. In comparison with OD of the control group, inhibitory rate of each concentration on cell toxicity was calculated, and half toxic concentration of the compound was calculated with Reed-Muench method.
quantity.kind: CC50 at 72 h

# compound, reported.result
records = [
    ("C=Cc1cccc2c1N(C)Cc1cc(OC(=O)CC)c(OC(=O)CC)cc1-2 [Compound 11i]", "> 100 µM"),
    ("C=Cc1cccc2c1N(C)Cc1cc(OC(=O)CC(C)C)c(OC(=O)CC(C)C)cc1-2 [Compound 11l]", "> 100 µM"),
    ("C=Cc1cccc2c1N(C)Cc1cc(OCC3CCCCC3)c(OCC3CCCCC3)cc1-2 [Compound 11d]", "> 100 µM"),
    ("CCc1cccc2c1N(C)Cc1cc(O)c(O)cc1-2", "61.3 µM"),
    ("C#CCOc1cc2c(cc1OCC#C)-c1cccc(CC)c1N(C)C2 [Compound 10d]", "58.3 µM"),
    ("CCc1cccc2c1N(C)Cc1cc(OCC3CCC3)c(OCC3CCC3)cc1-2 [Compound 10e]", "> 100 µM"),
    ("CCc1cccc2c1N(C)Cc1cc(OCC3CCCCC3)c(OCC3CCCCC3)cc1-2 [Compound 10f]", "> 100 µM"),
    ("C=CCOc1cc2c(cc1OCC=C)-c1cccc(C=C)c1N(C)C2 [Compound 11a]", "> 100 µM"),
    ("C=Cc1cccc2c1N(C)Cc1cc(OCC3CCC3)c(OCC3CCC3)cc1-2 [Compound 11c]", "> 100 µM"),
    ("C=Cc1cccc2c1N(C)Cc1cc(OC(=O)c3ccccc3)c(OC(=O)c3ccccc3)cc1-2 [Compound 11m]", "> 100 µM"),
    ("C=Cc1cccc2c1N(C)Cc1cc(OC(C)=O)c(OC(C)=O)cc1-2 [Compound 11h]", "> 100 µM"),
    ("CCc1cccc2c1N(C)Cc1cc(OC)c(OC)cc1-2 [Compound 10a]", "> 100 µM"),
    ("C=Cc1cccc2c1N(C)Cc1cc(OC(=O)C(C)C)c(OC(=O)C(C)C)cc1-2 [Compound 11j]", "> 100 µM"),
    ("C#CCOc1cc2c(cc1OCC#C)-c1cccc(C=C)c1N(C)C2 [Compound 11b]", "> 100 µM"),
    ("CCc1cccc2c1N(C)Cc1cc(OC(=O)C(C)C)c(OC(=O)C(C)C)cc1-2 [Compound 10l]", "> 100 µM"),
    ("CCc1cccc2c1N(C)Cc1cc(OC(C)=O)c(OC(C)=O)cc1-2 [Compound 10j]", "90.1 µM"),
    ("CCc1cccc2c1N(C)Cc1cc(OC(=O)CC(C)C)c(OC(=O)CC(C)C)cc1-2 [Compound 10n]", "50.3 µM"),
    ("C=Cc1cccc2c1N(C)Cc1cc(O)c(O)cc1-2", "> 100 µM"),
]

----------
Tested on: HCV
assay.details: microbe, parasite or virus in culture
Format: cell-based, Hepatitis C Virus (HCV)
test.settings: Hepatitis C virus, Huh7.5, 72 h, Huh7.5 cells infected with HCV, intracellular HCV RNA by qRT-PCR, Reed-Muench method
quantity.kind: EC50

# compound, reported.result
rows = [
    ("CCc1cccc2c1N(C)Cc1cc(OC(=O)c3ccccc3)c(OC(=O)c3ccccc3)cc1-2 [Compound 10o]", "11 µM"),
    ("C=CCOc1cc2c(cc1OCC=C)-c1cccc(CC)c1N(C)C2 [Compound 10c]", "16.3 µM"),
    ("CCc1cccc2c1N(C)Cc1cc(OCc3ccccc3)c(OCc3ccccc3)cc1-2 [Compound 10g]", "1.25 µM"),
    ("CCc1cccc2c1N(C)Cc1cc(OCC3CCCCC3)c(OCC3CCCCC3)cc1-2 [Compound 10f]", "10.8 µM"),
]

----------
Each entry below lists one item and its recorded pEC50 value.
Test system: HCV
assay.details: microbe, parasite or virus in culture
Format: cell-based, Hepatitis C Virus (HCV)
test.settings: Hepatitis C virus, Huh7.5, 72 h, Huh7.5 cells infected with HCV, intracellular HCV RNA by qRT-PCR, Reed-Muench method
pEC50: −log10 of the molar value.

# molecule, value.operator, pEC50
rows = [
    ("C=Cc1cccc2c1N(C)Cc1cc(OC(=O)CC)c(OC(=O)CC)cc1-2 [Compound 11i]", "=", 5.99),
    ("CCc1cccc2c1N(C)Cc1cc(OC(C)=O)c(OC(C)=O)cc1-2 [Compound 10j]", "=", 6.64),
    ("C=Cc1cccc2c1N(C)Cc1cc(OCC3CCC3)c(OCC3CCC3)cc1-2 [Compound 11c]", "=", 4.95),
    ("C=Cc1cccc2c1N(C)Cc1cc(OC(=O)C(C)C)c(OC(=O)C(C)C)cc1-2 [Compound 11j]", "=", 5.74),
    ("CCc1cccc2c1N(C)Cc1cc(OCC3CCC3)c(OCC3CCC3)cc1-2 [Compound 10e]", "=", 5.02),
    ("CCc1cccc2c1N(C)Cc1cc(O)c(O)cc1-2 [Compound 10]", "<", 4.95),
    ("C#CCOc1cc2c(cc1OCC#C)-c1cccc(CC)c1N(C)C2 [Compound 10d]", "=", 6.08),
    ("CCc1cccc2c1N(C)Cc1cc(OC(=O)C(C)C)c(OC(=O)C(C)C)cc1-2 [Compound 10l]", "=", 4.86),
    ("C=Cc1cccc2c1N(C)Cc1cc(OC(=O)c3ccccc3)c(OC(=O)c3ccccc3)cc1-2 [Compound 11m]", "=", 5.99),
]

----------
Test system: Huh7.5 cells
assay.details: Toxicity experiment of the compound on Huh7.5 (MTT)
test.settings: Huh7.5 cells, 72 hrs, MTT, half toxic concentration by Reed-Muench method

# compound, CC50 (µM)
data = [
    ("CCC[C@H](NC(=O)[C@@H]1[C@H]2CCC[C@H]2CN1C(=O)[C@@H](NC(=O)[C@@H](NC(=O)c1cnccn1)C1CCCCC1)C(C)(C)C)C(=O)C(=O)NC1CC1 [VX-950, telaprevir, reference compound]", 32.5),
]

The values you see were collected from patent US9682954B2.
